Recorded Ki values for a group of compounds are listed next.
test system: Micrococcus luteus; assay: Inhibition of [125I]ristocetin binding to micrococcus luteus cell wall (UDP-N-acetylmuramylpentapeptide).; type: functional, organism-based
# number only, unit µM dropped from output

Here's what some known entries look like.
Record CC(=O)NCC(=O)N[C@H](CC(N)=O)C(=O)O , field Ki: 720

Ki recorded for this compound, CC(=O)N[C@@H](CCCCN)C(=O)N[C@H](C)C(=O)N[C@H](C)C(=O)O , is 16

According to the records, this compound CC(=O)NCC(=O)N[C@@H](C(=O)O)C(C)C displays Ki of 340

Kindly note the recorded Ki for CC(=O)N[C@H](CC(N)=O)C(=O)O , which is 9000

Consider CC(=O)N[C@@H](C(=O)O)C(C)C . Its measured Ki is 3100

Further cases:
For this compound ( C[C@@H](NC(=O)OCc1ccccc1)C(=O)O ), measured Ki is 5100

====

system: Micrococcus luteus; test: Inhibition of [125I]ristocetin binding to micrococcus luteus cell wall (UDP-N-acetylmuramylpentapeptide).; type: functional, organism-based
Peptide text beside a SMILES is read from it.
The entries below are paired with their reported Ki.
Only the number, expressed in µM, is required.

GET /value?item= CC(=O)N[C@@H](CC(C)C)C(=O)NCC(=O)NCC(=O)O &field=Ki returns 2000

Others:
Data point: CC(=O)N[C@H](CC(C)C)C(=O)NCC(=O)NCC(=O)O ; Ki = 1900

Ki measured on CC(=O)NCC(=O)NCC(=O)O = 4600

Entry CC(=O)NCC(=O)N[C@H](CO)C(=O)O — recorded Ki = 540

// Ki value for CC(=O)N[C@@H](Cc1ccc(O)cc1)C(=O)NCC(=O)NCC(=O)O (Ac-Tyr-Gly-Gly-OH) : 1300

Looking up CC(=O)NC(C(=O)O)c1ccc(O)cc1 (configuration not stated) , I found its Ki recorded as 4200

====

test system: Micrococcus luteus; assay: Inhibition of [125I]ristocetin binding to micrococcus luteus cell wall (UDP-N-acetylmuramylpentapeptide).; type: functional, organism-based
Peptide text beside a SMILES is read from it.
Listed here are molecules together with their documented Ki.
Answer in mM, number only, no unit symbol.

Recorded results for 5 molecules are shown here.
Measured Ki, CC[C@@H](C)[C@@H](NC(C)=O)C(=O)O : 2.8

The reported value for CC(=O)NCC(=O)N[C@@H](C(=O)O)[C@H](C)O in terms of Ki is 4.7

Measured Ki, CC(=O)NCC(=O)N[C@H](CC(=O)O)C(=O)O : 1.4

Item: CC(=O)N[C@H](CC(C)C)C(=O)O | Ki: 2.8

Input CC(=O)NCC(=O)N[C@H](C)C(=O)O . Output Ki: 0.13

Now for the molecule whose Ki we want.
// recorded Ki for CC(=O)NCC(=O)NCC(=O)NCC(=O)O (Ac-Gly-Gly-Gly-OH) : 7.1
